Measured Target: T1, cynomolgus monkey TREM2 Fc fusion (entire TREM2 ECD; only one Fc arm fused to TREM2) (cynomolgus monkey, UniProt Q9NZC2 19-174 (human entry))
T1 construct: also called cyno TREM2-Fc
T1 chain: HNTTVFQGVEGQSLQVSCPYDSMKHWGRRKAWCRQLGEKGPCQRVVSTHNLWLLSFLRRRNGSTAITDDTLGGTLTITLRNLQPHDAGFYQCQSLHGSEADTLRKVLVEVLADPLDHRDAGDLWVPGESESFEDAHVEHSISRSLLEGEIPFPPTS
Assay Notes: BLI, Fab, monovalent
pKd: −log10 of the molar value.
Reported pKd values for the following binders.
Recorded Metric: pKd

Binder	Reported Value
AL2p-19 (antibody, V domains shown, Fab and IgG formats under one id) VH: QVQLVQSGAEVKKPGSSVKVSCKASGYAFSSHWMNWVRQAPGQGLEWMGRIYPGDGDTNYARKFQGRVTITADESTSTAYMELSSLRSEDTAVYYCARLLRNQPGESYAMDYWGQGTLVTVSS VL: DVVMTQTPLSLSVTPGQPASISCRSSRSLVHSNGYTYLHWYLQKPGQSPQLLIYKVSNRVSGVPDRFSGSGSGTDFTLKISRVEAEDVGVYYCSQSTRVPYTFGQGTKLEIK	8.40
AL2p-33 (antibody, V domains shown, Fab and IgG formats under one id) VH: EVQLVQSGAEVKKPGSSVKVSCKASGYAFSSSWMNWVRQAPGQGLEWMGRIYPGDGDTNYAQKFQGRVTITADESTSTAYMELSSLRSEDTAVYYCARLLRNQPGESYAMDYWGQGTLVTVSS VL: GVVMAQTPLSLSVTPGQPASISCRTSQSLVHSNGYTYLHWYLQKPGQSPQLLIYKVSNRVSGVPDRFSGSGSGTDFTLKISRVEAEDVGVYYCSQSTRVPYTFGQGTKLEIK	9.05
AL2p-37 (antibody, IgG1, V domains shown, Fab and IgG formats under one id; also called AL2p-37 huIgG1) VH: QVQLVQSGAEVKKPGASVKVSCKASGYAFSSQWMNWVRQAPGQRLEWIGRIYPGGGDTNYAGKFQGRVTITADTSASTAYMELSSLRSEDTAVYYCARLLRNQPGESYAMDYWGQGTLVTVSS VL: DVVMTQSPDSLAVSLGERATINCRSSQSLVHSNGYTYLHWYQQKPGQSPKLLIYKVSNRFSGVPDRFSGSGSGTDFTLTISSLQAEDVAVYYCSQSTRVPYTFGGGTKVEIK	7.79
AL2p-12 (antibody, V domains shown, Fab and IgG formats under one id) VH: QVQLVQSGAEVKKPGSSVKVSCKASGYAFSSHWMNWVRQAPGQGLEWMGRIYPGDGDTNYAHKFQGRVTITADESTSTAYMELSSLRSEDTAVYYCARLLRNQPGESYAMDYWGQGTLVTVSS VL: GVVMTQTPLSLSVTPGQPASISCRSSQSLVHSNGYTYLHWYLQKPGQSPQLLIYKVSNRRSGVPDRFSGSGSGTDFTLKISRVEAEDVGVYYCSQSTRVPYTFGQGTKLEIK	8.28
AL2p-55 (antibody, V domains shown, same VH/VL entries as AL2p-56; Fab and IgG formats under one id) VH: EVQLVQSGAEVKKPGSSVKVSCKASGYAFSSHWMNWVRQAPGQGLEWMGRIYPGEGDTNYAQKFHGRVTITADESTSTAYMELSSLRSEDTAVYYCARLLRNKPGESYAMDYWGQGTLVTVSS VL: DVVMTQTPLSLSVTPGQPASISCRTSQSLVHSNAYTYLHWYLQKPGQSPQLLIYKVSNRVSGVPDRFSGSGSGTDFTLKISRVEAEDVGVYYCSQSTRVPYTFGQGTKLEIK	7.65
